- tested on: GRK1 (human)
- procedure details: KINOMEscan competition binding
- experimental conditions: compound 10.0 µM
The entries below come with measured kinase still bound, per cent of control values attached.
Write down the value, and be sure its unit follows.

Here are 5 compounds together with their reported answers.
{"mol smiles": "Cn1c(=O)n(-c2ccc(C(C)(C)C#N)cc2)c2c3cc(-c4cnc5ccccc5c4)ccc3ncc21", "kinase still bound, per cent of control": "100%"}
{"mol smiles": "CN(C)C/C=C/C(=O)Nc1cccc(Nc2ncc3c(n2)N(C)c2ccccc2C(=O)N3C)c1", "kinase still bound, per cent of control": "100%"}
{"mol smiles": "C=CC(=O)Nc1cc(NC(=O)c2ccc(C)c(NC(=O)c3ccno3)c2)cc(C(F)(F)F)c1", "kinase still bound, per cent of control": "86%"}
{"mol smiles": "Nc1ccc(-c2ccc3ncc4ccc(=O)n(-c5cccc(C(F)(F)F)c5)c4c3c2)cn1", "kinase still bound, per cent of control": "100%"}
{"mol smiles": "CCN1CCN(Cc2ccc(Nc3ncc4c(n3)N(C)c3ccccc3C(=O)N4C)cc2C(F)(F)F)CC1", "kinase still bound, per cent of control": "78%"}

Please give the measured kinase still bound, per cent of control for this compound: CCCS(=O)(=O)Nc1ccc(F)c(C(=O)c2c[nH]c3ncc(-c4ccc(Cl)cc4)cc23)c1F
100%

Given the entry O=C1Nc2ccc(I)cc2/C1=C/c1cc(Br)c(O)c(Br)c1 , report its measured kinase still bound, per cent of control.
92%

Find the recorded kinase still bound, per cent of control belonging to Cc1ccc2nc(NCCN)c3ncc(C)n3c2c1 and report it.
100%

Given the entry OCCCNc1cc(-c2ccnc(Nc3cccc(Cl)c3)n2)ccn1 , report its measured kinase still bound, per cent of control.
100%

Which kinase still bound, per cent of control value belongs to O=C(NOC[C@H](O)CO)c1ccc(F)c(F)c1Nc1ccc(I)cc1F ?
100%

So what's the measured kinase still bound, per cent of control for this one? CCOc1cc2ncc(C#N)c(Nc3ccc(OCc4ccccn4)c(Cl)c3)c2cc1NC(=O)/C=C/CN(C)C
84%

# lookup: kinase still bound, per cent of control of C[C@@H](Oc1cc(-n2cnc3ccc(CN4CCN(C)CC4)cc32)sc1C(N)=O)c1ccccc1C(F)(F)F
50%

###

- tested on: PRKCQ (human)
- procedure details: KINOMEscan competition binding
- experimental conditions: compound 10.0 µM
Listed below: kinase still bound, per cent of control values for each entry.
The reply should contain only the number, in %.

Examples from the recorded data:
{"mol smiles": "OCCCNc1cc(-c2ccnc(Nc3cccc(Cl)c3)n2)ccn1", "tested on": "PRKCQ (human)", "quantity unit": "%", "reported result": 100}
{"mol smiles": "CC[C@@H]1C(=O)N(C)c2cnc(Nc3ccc(C(=O)NC4CCN(C)CC4)cc3OC)nc2N1C1CCCC1", "tested on": "PRKCQ (human)", "quantity unit": "%", "reported result": 100}
{"mol smiles": "C=CC(=O)Nc1cccc(Oc2nc(Nc3ccc(N4CCN(C)CC4)cc3OC)ncc2Cl)c1", "tested on": "PRKCQ (human)", "quantity unit": "%", "reported result": 100}

Look at this compound and give its reported kinase still bound, per cent of control. Cc1ccc(C(=O)Nc2cccc(C(F)(F)F)c2)cc1Nc1cncc(C(N)=O)c1
100

Bench note: what kinase still bound, per cent of control did COc1cc(C(=O)NC2CCN(C)CC2)ccc1Nc1ncc2c(n1)N(C1CCCC1)CCC(=O)N2C(C)C show?
100

Recorded kinase still bound, per cent of control for O=C1Nc2ccc(I)cc2/C1=C/c1cc(Br)c(O)c(Br)c1 , please?
90

###

- tested on: FGFR1 (human)
- procedure details: KINOMEscan competition binding
- experimental conditions: compound 10.0 µM
Assign labels as follows, please: True for kinase still bound, per cent of control below 80%; False for kinase still bound, per cent of control equal to or exceeding 80%.

{"compound": "C=CC(=O)Nc1cccc(Nc2nc(N[C@H]3CC[C@H](N(C)C)CC3)nc3c2ncn3C(C)C)c1", "tested on": "FGFR1 (human)", "label class": "True"}
{"compound": "Cc1ccc(NC(=O)c2cccc(C(C)(C)C#N)c2)cc1Nc1ccc2ncn(C)c(=O)c2c1", "tested on": "FGFR1 (human)", "label class": "True"}
{"compound": "CCN1CCN(Cc2ccc(Nc3ncc4c(n3)N(C)c3ccccc3C(=O)N4C)cc2C(F)(F)F)CC1", "tested on": "FGFR1 (human)", "label class": "True"}
{"compound": "O=C(NC1CC1)c1cccc(-c2ccc3c(NC(=O)C4CC4)n[nH]c3c2)c1", "tested on": "FGFR1 (human)", "label class": "False"}

I wonder whether Cc1cc([C@@H](C)Nc2ccccc2C(=O)O)c2nc(N3CCOCC3)cc(=O)n2c1 has kinase still bound, per cent of control below 80%. Can you tell?
False

Lab note: confirm whether the reported kinase still bound, per cent of control for this compound is below 80%, equality not counting. compound: COc1cc(C(=O)NC2CCN(C)CC2)ccc1Nc1ncc2c(n1)N(C1CCCC1)C(C)CC(=O)N2C (centres undefined)
False

Does the reported kinase still bound, per cent of control of the following compound sit strictly below 80%? C[C@@H](Oc1cc(-n2cnc3ccc(CN4CCN(C)CC4)cc32)sc1C(N)=O)c1ccccc1C(F)(F)F
True

Report whether reported kinase still bound, per cent of control is lower than 80% (strictly) for O=C(O)c1ccc(Nc2ncc3c(n2)-c2ccc(Cl)cc2C(c2c(F)cccc2F)=NC3)cc1
True

For this compound, is kinase still bound, per cent of control lower than 80%? CCOc1cc2ncc(C#N)c(Nc3ccc(OCc4ccccn4)c(Cl)c3)c2cc1NC(=O)/C=C/CN(C)C
False

###

- tested on: MAPKAPK5 (human) (UniProt Q8IW41)
- Sequence (Q8IW41 whole entry, looked up): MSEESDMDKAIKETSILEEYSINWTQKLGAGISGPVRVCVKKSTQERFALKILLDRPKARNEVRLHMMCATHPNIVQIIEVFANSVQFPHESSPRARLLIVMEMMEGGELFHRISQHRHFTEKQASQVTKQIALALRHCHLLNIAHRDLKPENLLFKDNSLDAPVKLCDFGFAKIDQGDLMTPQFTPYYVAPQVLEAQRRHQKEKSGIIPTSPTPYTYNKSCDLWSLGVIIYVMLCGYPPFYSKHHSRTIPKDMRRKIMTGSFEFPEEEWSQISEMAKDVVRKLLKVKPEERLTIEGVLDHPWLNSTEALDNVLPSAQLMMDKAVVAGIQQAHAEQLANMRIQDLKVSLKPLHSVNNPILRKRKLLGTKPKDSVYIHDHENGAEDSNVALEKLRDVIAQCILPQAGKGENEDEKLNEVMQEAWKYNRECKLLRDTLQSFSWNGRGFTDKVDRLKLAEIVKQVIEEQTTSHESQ
- procedure details: KINOMEscan competition binding
- experimental conditions: compound 10.0 µM
readout kind: kinase still bound, per cent of control (%)
The reply should contain only the number, in %.

The examples below pair each entry with its known result.
{"molecule": "Cc1cc([C@@H](C)Nc2ccccc2C(=O)O)c2nc(N3CCOCC3)cc(=O)n2c1", "readout kind": "kinase still bound, per cent of control", "reported result": 100}
{"molecule": "CCCS(=O)(=O)Nc1ccc(F)c(C(=O)c2c[nH]c3ncc(-c4ccc(Cl)cc4)cc23)c1F", "readout kind": "kinase still bound, per cent of control", "reported result": 100}
{"molecule": "C=CC(=O)Nc1cccc(Oc2nc(Nc3ccc(N4CCN(C)CC4)cc3OC)ncc2Cl)c1", "readout kind": "kinase still bound, per cent of control", "reported result": 100}
{"molecule": "CCN1CCN(Cc2ccc(Nc3ncc4c(n3)N(C)c3ccccc3C(=O)N4C)cc2C(F)(F)F)CC1", "readout kind": "kinase still bound, per cent of control", "reported result": 100}
{"molecule": "C[C@@H](Oc1cc(-n2cnc3ccc(CN4CCN(C)CC4)cc32)sc1C(N)=O)c1ccccc1C(F)(F)F", "readout kind": "kinase still bound, per cent of control", "reported result": 89}
{"molecule": "CN(C)C/C=C/C(=O)Nc1cccc(Nc2ncc3c(n2)N(C)c2ccccc2C(=O)N3C)c1", "readout kind": "kinase still bound, per cent of control", "reported result": 85}
{"molecule": "Cn1c(=O)n(-c2ccc(C(C)(C)C#N)cc2)c2c3cc(-c4cnc5ccccc5c4)ccc3ncc21", "readout kind": "kinase still bound, per cent of control", "reported result": 100}
{"molecule": "O=C(NC1CC1)c1cccc(-c2ccc3c(NC(=O)C4CC4)n[nH]c3c2)c1", "readout kind": "kinase still bound, per cent of control", "reported result": 99}

Which kinase still bound, per cent of control value belongs to Cc1ccc2nc(NCCN)c3ncc(C)n3c2c1 ?
100

kinase still bound, per cent of control for CCOc1cc2ncc(C#N)c(Nc3ccc(OCc4ccccn4)c(Cl)c3)c2cc1NC(=O)/C=C/CN(C)C ?
89

kinase still bound, per cent of control for COc1cc(N2CCN(C)CC2)ccc1Nc1nc(N)c(C(=O)c2c(Cl)cccc2Cl)s1 ?
100

Requested field: kinase still bound, per cent of control. Item: CC[C@@H]1C(=O)N(C)c2cnc(Nc3ccc(C(=O)NC4CCN(C)CC4)cc3OC)nc2N1C1CCCC1
100

Form field: reported kinase still bound, per cent of control of OCCCNc1cc(-c2ccnc(Nc3cccc(Cl)c3)n2)ccn1
100

Please report the recorded kinase still bound, per cent of control for N#Cc1c(NC(=O)c2cccc3ccccc23)sc2c1CCCC2 .
100

Any idea what its kinase still bound, per cent of control is? The molecule is Cc1ccc(C(=O)Nc2cccc(C(F)(F)F)c2)cc1Nc1cncc(C(N)=O)c1
100

State the recorded kinase still bound, per cent of control for this entry: C=CC(=O)Nc1cccc(Nc2nc(N[C@H]3CC[C@H](N(C)C)CC3)nc3c2ncn3C(C)C)c1
87

Reported kinase still bound, per cent of control, molecule CCC(=O)N1CCN(c2ccc(-n3c(=O)ccc4cnc5ccc(-c6cnc7ccccc7c6)cc5c43)cc2C(F)(F)F)CC1 : ____
100

Given the molecule COc1cc(C(=O)NC2CCN(C)CC2)ccc1Nc1ncc2c(n1)N(C1CCCC1)C(C)CC(=O)N2C (centres undefined) , what is its reported kinase still bound, per cent of control?
100

What kinase still bound, per cent of control value was documented for this molecule, O=C1Nc2ccc(I)cc2/C1=C/c1cc(Br)c(O)c(Br)c1 ?
100
